SYSTEM NAME: Histone deacetylase
PROCEDURE TEXT: Inhibitory concentration against histone deacetylase of HeLa cells
Format: cell-based, Homo sapiens
MEASURED ENDPOINT: IC50 (µM)

# molecule `O=C(CCS)NCCCCCC(=O)Nc1ccccc1` ; its IC50 = 24

The value of IC50 measured for the molecule `CS(=O)(=O)NCCCCCC(=O)Nc1ccccc1` turned out to be 7500

Lab note: measured IC50 of `CC(=O)SCC(=O)NCCCCCC(=O)Nc1ccccc1` was 22

Data point: `O=C(CS)NCCCCC(=O)Nc1ccccc1` ; IC50 = 11

I: O=C(CS)NCCCCCCC(=O)Nc1ccccc1
II: CS(=O)(=O)CCCCCCC(=O)Nc1ccccc1
## Task Choose between I and II : whose measured IC50 value is numerically larger? Answer with the label corresponding to your selection.
## Result II
(II: 230 µM, I: 3 µM)

* * *

SYSTEM NAME: Histone deacetylase (Homo sapiens) (UniProt Q13547+O15379+Q9UBN7+Q92769+Q9UQL6+Q8WUI4+Q9BY41+Q96DB2+P56524+Q9UKV0+Q969S8)
TEST PARAMETERS: HeLa, at 100 µM
Description: Percentage inhibition against histone deacetylase of HeLa cells at 100 uM
MEASURED ENDPOINT: inhibition (%)

Form: molecule = `O=C(CCS)NCCCCCC(=O)Nc1ccccc1` ; inhibition = 78

Briefly, inhibition measured for `O=C(CS)NCCCCCCC(=O)Nc1ccccc1` : 96

GET /value?item= `O=C(CS)NCCCCC(=O)Nc1ccccc1` &field=inhibition returns 88

Measured inhibition of `CC(=O)SCC(=O)NCCCCCC(=O)Nc1ccccc1` : 72

I: O=C(CS)NCCCCCC(=O)Nc1ccccc1
II: CS(=O)(=O)NCCCCCC(=O)Nc1ccccc1
## Task Given the listed records, identify the one among I and II with higher inhibition. # respond with the chosen item's label
## Result I
